Target: T1, ZFP SBS#928 (synthetic)
T1 chain: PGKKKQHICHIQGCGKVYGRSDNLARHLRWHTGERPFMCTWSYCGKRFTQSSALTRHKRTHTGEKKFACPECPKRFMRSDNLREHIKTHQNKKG
Experiment: EMSA
Details: tags: MBP fusion
assay.metric: pKd
Field pKd (float): negative decimal logarithm of the concentration in molar.

Reported pKd for CAGGTTGAG (dsDNA) DNA 1: CAGGTTGAG DNA 2: CTCAACCTG was 7.60
